test system: NCI-H226 lung; assay: NCI-60 one-dose screen, 48 h (100 = growth as untreated, 0 = no growth, -100 = all killed); conditions: 10 µM unless noted
This is part of a sample that, as a whole, favours compounds with a hit. Of some 83,000 tested, about 20% had one in any assay.
measurement type: growth (%)
Return type: number; implicit unit %.

Would you please look over these solved cases?
compound	target under test	units text	growth
Cc1ccc(C(=O)NCCNc2nccc(-c3c(-c4cccc(F)c4)nc4sccn34)n2)cc1	NCI-H226 lung	%	36.4
COc1ccc(-c2[nH]c3ccc(OC)cc3c2/C=C(\C#N)S(=O)(=O)c2ccccc2)cc1	NCI-H226 lung	%	72.3
CC/C=C\C[C@@H]1C/C=C2/C(=O)C=C[C@H]2C/C=C\CCCC(=O)O1	NCI-H226 lung	%	-20
COc1ccc(-c2cc3c4c(nc5ccccc5c4c2)CC(c2cc(OC)c(OC)c(OC)c2)O3)cc1 (centres undefined)	NCI-H226 lung	%	-12.5
Nc1cc2c(cc1Br)-c1cc(Cl)ccc1C2=O	NCI-H226 lung	%	81.1
Cc1onc2c(-c3ccccc3)n[nH]c(=O)c12	NCI-H226 lung	%	110

For the compound COc1ccc(-c2cc(-c3cc(OC)c(OC)c(OC)c3)nc(N3CCOCC3)c2C#N)cc1 , give its reported growth.
83.8

Consider the compound O=C1CCC(C(=O)NCCNCCNC(=O)C2CCC(=O)N2)N1 (centres undefined) and give its recorded growth.
97.7

Let me know recorded growth for C=C(C)[C@@H]1CC[C@]2(N=C=O)CC[C@]3(C)[C@H](CC[C@@H]4[C@@]5(C)Cc6c([nH]c7ccccc67)C(C)(C)[C@@H]5CC[C@]43C)[C@@H]12 , thanks.
90.5

###

test system: NCI-H522 lung; assay: NCI-60 one-dose screen, 48 h (100 = growth as untreated, 0 = no growth, -100 = all killed); details: 10 µM unless noted
The panel holds about 83,000 compounds, 20% with a hit somewhere; the sample as a whole holds those more often.
Kindly return Satisfied if reported growth is no lower than 40%; return Not satisfied if it is lower.

Here are 4 compounds together with their reported answers.
structure string	target under test	answer label
CN1C(=O)CNC(=O)[C@H](NC(=O)c2nc3ccccc3cc2O)CSSC[C@H]1C(=O)NCCc1nc2ccccc2cc1O	NCI-H522 lung	Satisfied
CCOC(=O)Nc1ccc(C(=O)/C=C/c2ccccc2)cc1	NCI-H522 lung	Satisfied
Cc1cccc(NC2=C(Cl)C(=O)c3nc(C)ccc3C2=O)c1	NCI-H522 lung	Not satisfied
O=S(=O)(Nc1ccc(-c2nc(-c3cccc(OCCN4CCOCC4)c3)c(-c3ccnc(Br)c3)[nH]2)cc1)c1ccccc1	NCI-H522 lung	Not satisfied

Now look at this entry.
Could you verify whether the entry Cc1cccc2c1S/C(=C/c1ccc([N+](=O)[O-])cc1)C2=O shows growth of no less than 40%?
Satisfied

###

tested on: LOX IMVI melanoma; experiment: NCI-60 one-dose screen, 48 h; conditions: 10 µM unless noted
About 83,000 compounds went through this panel and 20% of them were active in at least one assay; those are over-represented in the sample as a whole. The source made the active and inactive calls. How the source made its calls: active means growth percent below 10; inactive means the rest.
Permitted responses: t (active), f (inactive)

Dear all, I need the recorded test outcome for COc1ccc(C2C(C#N)=C(N)Oc3c2sc2c(C)cccc32)cc1 (centres undefined) , thank you.
f

Which outcome was entered for the molecule CNc1ccc(Nc2cccc(C)c2)c2c1C(=O)c1ccccc1C2=O in this test?
f

In this assay, the call recorded for NCCCNc1nc2ccc(Cl)cc2c2c(=O)c3cc(F)ccc3sc12 was what?
t

Hi, do you know how CC(=O)CC(c1ccccc1)c1c(C)[nH]c2ccccc12 (centres undefined) came out in this test?
f

Just curious, what result did O=c1c2cccc(Cl)c2sc2c(NCCCNCCO)nc3ccccc3c12 get here?
t
